All values here come from the supplement of paper PMC5998384.

# solubility in G1/S (log2) values compiled below
# Tested on: HeLa Kyoto;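 also: HeLa Kyoto cells arrested at G1/S by double thymidine block, proteins quantified by TMT10plex mass spectrometry in mild NP-40 versus SDS extracts, three biological replicates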
# EXPERIMENTAL_DETAILS: solubility in G1/S (NP-40 vs SDS abundance) (log2 ratio); higher = more soluble
# STATED_CONDITIONS: cell cycle stage: G1/S
Give your answer as a number; write no unit.

Known results for substances:
Query (substance): MWGACKVKVHDSLATISITLRRYLRLGATMAKSKFEYVRDFEADDTCLAHCWVVVRLDGRNFHRFAEKHNFAKPNDSRALQLMTKCAQTVMEELEDIVIAYGQSDEYSFVFKRKTNWFKRRASKFMTHVASQFASSYVFYWRDYFEDQPLLYPPGFDGRVVVYPSNQTLKDYLSWRQADCHINNLYNTVFWALIQQSGLTPVQAQGRLQGTLAADKNEILFSEFNINYNNELPMYRKGTVLIWQKVDEVMTKEIKLPTEMEGKKMAVTRTRTKPVPLHCDIIGDAFWKEHPEILDEDS [THG1L] ; field requested: solubility in G1/S (log2)
-0.0679

What about MWRMRGGATRRGSCCGGDGAADGRGPGRSGRARGGGSPSGGGGGVGWRGRADGARQQLEERFADLAASHLEAIRARDEWDRQNARLRQENARLRLENRRLKRENRSLFRQALRLPGEGGNGTPAEARRVPEEASTNRRARDSGREDEPGSPRALRARLEKLEAMYRRALLQLHLEQRGPRPSGDKEEQPLQEPDSGLRSRDSEPSGPWL [TUSC1] ?
0.541

For MDRFLVKGAQGGLLRKQEEQEPTGEEPAVLGGDKESTRKRPRREAPGNGGHSAGPSWRHIRAEGLDCSYTVLFGKAEADEIFQELEKEVEYFTGALARVQVFGKWHSVPRKQATYGDAGLTYTFSGLTLSPKPWIPVLERIRDHVSGVTGQTFNFVLINRYKDGCDHIGEHRDDERELAPGSPIASVSFGACRDFVFRHKDSRGKSPSRRVAVVRLPLAHGSLLMMNHPTNTHWYHSLPVRKKVLAPRVNLTFRKILLTKK [ALKBH2] then?
0.0785

Ok, now ZWILCH
0.0446

Continuing:
What solubility in G1/S (log2) value was documented for this substance, MAAGVDCGDGVGARQHVFLVSEYLKDASKKMKNGLMFVKLVNPCSGEGAIYLFNMCLQQLFEVKVFKEKHHSWFINQSVQSGGLLHFATPVDPLFLLLHYLIKADKEGKFQPLDQVVVDNVFPNCILLLKLPGLEKLLHHVTEEKGNPEIDNKKYYKYSKEKTLKWLEKKVNQTVAALKTNNVNVSSRVQSTAFFSGDQASTDKEEDYIRYAHGLISDYIPKELSDDLSKYLKLPEPSASLPNPPSKKIKLSDEPVEAKEDYTKFNTKDLKTEKKNSKMTAAQKALAKVDKSGMKSIDTFFGVKNKKKIGKV [RNASEH2B] ?
0.517

Again, but for MNGPADGEVDYKKKYRNLKRKLKFLIYEHECFQEELRKAQRKLLKVSRDKSFLLDRLLQYENVDEDSSDSDATASSDNSETEGTPKLSDTPAPKRKRSPPLGGAPSPSSLSLPPSTGFPLQASGVPSPYLSSLASSRYPPFPSDYLALQLPEPSPLRPKREKRPRLPRKLKMAVGPPDCPVGGPLTFPGRGSGAGVGTTLTPLPPPKMPPPTILSTVPRQMFSDAGSGDDALDGDDDLVIDIPE [INO80E]
0.135
